Source: ChEMBL document CHEMBL4680114

Experiment: Unbound brain-to-plasma concentration ratio in C57BL/6J mouse at 3 mg/kg, iv administered as single dose by LC-MS/MS analysis
Format: ADME, organism-based
Conditions: brain and plasma, read-out: K(p,uu,brain)
RECORDED_ENDPOINT: Kp uu

| SMILES_DATA | RECORDED_ENDPOINT | VAL |
| --- | --- | --- |
| O=c1cc(-c2cccc3c2Sc2ccc(O[C@@H]4CCN(CC(F)F)C4)cc2C3)oc(N2CCOCC2)c1 | Kp uu | 0.05 |
| COC[C@H]1c2cc(OC)ccc2Sc2c(-c3cc(=O)cc(N4CCOCC4)o3)cccc21 | Kp uu | 0.18 |
| COC[C@@H](C)Oc1ccc2c(c1)Cc1cccc(-c3cc(=O)cc(N4CCOCC4)o3)c1S2 | Kp uu | 0.14 |
| CC(C)(O)C1CCN(CCOc2ccc3c(c2)Cc2cccc(-c4cc(=O)cc(N5CCOCC5)o4)c2S3)CC1 | Kp uu | 0.05 |
| COc1ccc2c(c1)C1(CCOCC1)c1cccc(-c3cc(=O)cc(N4CCOCC4)o3)c1S2 | Kp uu | 0.12 |
| O=c1cc(-c2cccc3c2Sc2ccc(OC4COC4)cc2C3)oc(N2CCOCC2)c1 | Kp uu | 0.07 |
| C[C@H](CN1C[C@@H](C)O[C@@H](C)C1)Oc1ccc2c(c1)Cc1cccc(-c3cc(=O)cc(N4CCOCC4)o3)c1S2 | Kp uu | 0.03 |
| COc1ccc2c(c1)Cc1cccc(-c3cc(=O)cc(N4CCOCC4)o3)c1S2 | Kp uu | 0.44 |

* * *

// reported solubility kinetic per item
Test: Kinetic solubility in pH 7.4 PBS buffer by LC-UV assay
Type: physicochemical
Conditions: read-out: Kinetic_solubility
RECORDED_ENDPOINT: solubility kinetic (µg/mL)

| MOLECULE | VAL |
| --- | --- |
| C[C@H](O)COc1ccc2c(c1)Cc1cccc(-c3cc(=O)cc(N4CCOCC4)o3)c1S2 | 30 |
| CC1(CNc2ccc3c(c2)Cc2cccc(-c4cc(=O)cc(N5CCOCC5)o4)c2S3)COC1 | 14 |
| O=c1cc(-c2cccc3c2Sc2ccc(OCCN4CCCC45CCOC5)cc2C3)oc(N2CCOCC2)c1 (stereo not drawn) | 47 |
| C[C@@H](COc1ccc2c(c1)Cc1cccc(-c3cc(=O)cc(N4CCOCC4)o3)c1S2)N1CCOCC1 | 9 |
| CC(=O)Nc1ccc2c(c1)Cc1cccc(-c3cc(=O)cc(N4CCOCC4)o3)c1S2 | 34 |
| CC(=O)N(C)c1ccc2c(c1)Cc1cccc(-c3cc(=O)cc(N4CCOCC4)o3)c1S2 | 77 |
| C[C@@H](CN1C[C@H]2C[C@@H]1CO2)Oc1ccc2c(c1)Cc1cccc(-c3cc(=O)cc(N4CCOCC4)o3)c1S2 | 89 |
| CC(C)(O)C1CCN(CCOc2ccc3c(c2)Cc2cccc(-c4cc(=O)cc(N5CCOCC5)o4)c2S3)CC1 | 101 |
| O=c1cc(-c2cccc3c2Sc2ccc(O[C@@H]4CCN(CC(F)F)C4)cc2C3)oc(N2CCOCC2)c1 | 7 |
| O=c1cc(-c2cccc3c2Sc2ccc(OCCN4CCC(F)(F)CC4)cc2C3)oc(N2CCOCC2)c1 | 3 |
| COC[C@@H]1c2cc(OC)ccc2Sc2c(-c3cc(=O)cc(N4CCOCC4)o3)cccc21 | 64 |
| CO[C@@H](C)COc1ccc2c(c1)Cc1cccc(-c3cc(=O)cc(N4CCOCC4)o3)c1S2 | 14 |
| COc1ccc2c(c1)C(C)(C)c1cccc(-c3cc(=O)cc(N4CCOCC4)o3)c1S2 | 5 |
